Target Or System: Cbl-b (Homo sapiens (Human), UniProt Q13191)
Sequence (Q13191 40-426): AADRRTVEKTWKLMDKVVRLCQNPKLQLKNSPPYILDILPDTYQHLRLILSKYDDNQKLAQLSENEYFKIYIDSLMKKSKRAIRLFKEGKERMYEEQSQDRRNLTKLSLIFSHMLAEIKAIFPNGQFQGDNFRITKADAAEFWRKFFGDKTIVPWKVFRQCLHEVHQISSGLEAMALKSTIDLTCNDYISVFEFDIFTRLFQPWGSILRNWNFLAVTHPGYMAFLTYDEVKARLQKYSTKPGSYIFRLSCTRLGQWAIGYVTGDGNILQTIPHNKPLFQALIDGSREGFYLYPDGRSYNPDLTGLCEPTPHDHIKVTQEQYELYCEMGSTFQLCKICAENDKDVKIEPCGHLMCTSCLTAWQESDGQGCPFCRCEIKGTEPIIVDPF
Assay Summary: Cbl-b LCK Ub TR-FRET assay (Cbl-b Lck HTRF)
Format: biochemical
Condition Info: Cbl-b LCK Ub TR-FRET
Would you mind telling me the reported pIC50 of each entry?
Numbers only, as −log10 of the molar value.

Consider the following illustrative entries.
Cn1cnnc1[C@H](c1cccc(N2Cc3c(cc(CNC4(C)CCC4)cc3C(F)(F)F)C2=O)c1)C1CC(=O)C1 (single isomer, unassigned) [Compound 115]; 8.00
Cn1cnnc1[C@@H](c1cccc(N2Cc3c(cc(CNC4(C)CCC4)cc3C(F)(F)F)C2=O)c1)N1CCC1 (single isomer, unassigned) [Compound 33]; 6.82
Cn1cnnc1[C@]1(c2cccc(N3Cc4c(cc(CNC5(C)CCC5)cc4C(F)(F)F)C3=O)c2)CCC(F)(F)C1 (single isomer, unassigned) [Compound 107]; 6.52

For every item below, please supply its pIC50.
1. Cn1cnnc1C1(c2cc(OC3CCCC3)nc(N3Cc4c(cc(CNC5(C)CCC5)cc4C(F)(F)F)C3=O)c2)CC2(COC2)C1 [Compound 193]
2. Cn1cnnc1[C@@H](c1cccc(N2Cc3c(cc(CNC4(C)CCC4)cc3C(F)(F)F)C2=O)c1)C1CC1 (single isomer, unassigned) [Compound 342]
3. Cn1cnnc1[C@@H](c1cccc(N2Cc3c(cc(CNC4(C)CCC4)cc3C(F)(F)F)C2=O)c1)C1CC(OC(F)F)C1 (single isomer, unassigned) [Compound 388]
4. CC[C@@H](NC1(C)CCC1)c1cc2c(c(C(F)(F)F)c1)CN(c1cccc([C@H](c3nncn3C)C3COC3)c1)C2=O [Compound 314]
5. Cn1cnnc1[C@]1(c2cc(OC3CCCC3)nc(N3Cc4c(cc(CNC5(C)CCC5)cc4C(F)(F)F)C3=O)c2)C[C@H](C)C1 [Compound 54]
6. Cn1cnnc1[C@H](CC1CCOCC1)c1cccc(N2Cc3c(cc(CNC4(C)CCC4)cc3C(F)(F)F)C2=O)c1 (single isomer, unassigned) [Compound 252]
7. Cn1cnnc1[C@@H](c1cccc(N2Cc3c(Cl)cc(CNC4(C)CCC4)cc3C2=O)c1)[C@H]1C[C@@H](F)C1 [Compound 317]

[7.44, 8.25, 6.92, 7.96, 8.09, 5.04, 6.77]

For every item below, please supply its pIC50.
1. CC[C@H](NC1(C)CCC1)c1cc2c(c(C(F)(F)F)c1)CN(c1cccc([C@H](c3nncn3C)C3COC3)c1)C2=O [Compound 313]
2. C[C@@H](CC#N)Nc1cc(C2(c3nncn3C)CC3(COC3)C2)cc(N2Cc3c(cc(CNC4(C)CCC4)cc3C(F)(F)F)C2=O)n1 [Compound 194]

1. 8.19
2. 7.89
